Every entry's value here was drawn from the Human Domainome abundance scans (Beltran et al. 2025).

B1: Transcription intermediary factor 1-beta, residues 620 to 671; numbered along this chain, Q13263 (parent)
chain: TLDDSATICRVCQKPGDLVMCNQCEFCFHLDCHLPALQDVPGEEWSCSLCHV

Variants of: B1
experiment.notes: abundance fitness (aPCA) (normalised: wild type 0, dead -1); higher = more abundant; growth selection in yeast, the domain comes from the species named
condition.label: Homo sapiens

# variant.notation, abundance fitness
records = [
    ("D4G", -0.219),
    ("C50K", -0.1),
    ("D17M", -0.364),
    ("D4F", -0.19),
    ("V11E", -0.072),
    ("P15D", -0.233),
    ("Q23C", -0.043),
    ("L37Y", -0.27),
    ("V11Y", -0.515),
    ("L2I", -0.112),
    ("F26H", -0.374),
]
